Provide the reported protein stability index of each item.
B1: BEX1 (parent)
chain: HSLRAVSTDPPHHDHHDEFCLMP

# Variants of: B1
# Measurement protocol: protein stability index of a GFP-peptide fusion (GPS, HEK-293T) (PSI 1-6); higher = more stable;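 note: lentivirally expressed fusions sorted by FACS into six bins by GFP to DsRed ratio, PSI derived from sequencing read proportions per bin multiplied by bin number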
# Reported conditions: c terminus: native
Answer as a number with no unit attached.

INPUT: Need protein stability index of `S7G` , thanks.
OUTPUT: 2.83

INPUT: Then what about the variant `H12Q` ?
OUTPUT: 2.12

INPUT: For `H13T` then?
OUTPUT: 2.38

INPUT: And the next one, `A5N` ?
OUTPUT: 2.18

INPUT: Also `M22E` ?
OUTPUT: 2.4

INPUT: Consider next the variant `H13V` in the same way.
OUTPUT: 1.99

INPUT: `F19L` ?
OUTPUT: 1.97

INPUT: Do the same for `M22K` please
OUTPUT: 3.36

INPUT: // repeat for `D9G` and report
OUTPUT: 3.24

INPUT: Cool, now `P11C`
OUTPUT: 1.57

INPUT: Here is the next variant: `H15Y`
OUTPUT: 1.84

INPUT: Try this variant too: `L21F`
OUTPUT: 2.37

INPUT: Entry to check: `V6M`
OUTPUT: 2.68

INPUT: Input `P11Y`
OUTPUT: 3.15

INPUT: What about this variant? `M22P`
OUTPUT: 2.68

INPUT: Another variant: `P23G`
OUTPUT: 2.55

INPUT: What about `L3P` ?
OUTPUT: 2.19

INPUT: Then `L3M` ?
OUTPUT: 3.08

INPUT: Similarly, `H15E` ?
OUTPUT: 1.67

INPUT: Next up: `A5M`
OUTPUT: 2.19

INPUT: What do you get for `E18C` ?
OUTPUT: 2.46

INPUT: Lookup `L3N`
OUTPUT: 2.59

INPUT: Cool, now `D14A`
OUTPUT: 2.35

INPUT: `T8Y` , same question.
OUTPUT: 2.14

INPUT: Note, next up: `H16L`
OUTPUT: 2.4

INPUT: Next: `D14K`
OUTPUT: 2.14

INPUT: `T8N` , same question.
OUTPUT: 2.4

INPUT: # iterate: `S7R`
OUTPUT: 1.88

INPUT: Also `P10L` ?
OUTPUT: 3.21

INPUT: Proceed to `M22S`
OUTPUT: 2.59

INPUT: Also check `F19H`
OUTPUT: 2.8

INPUT: // repeat for `D9V` and report
OUTPUT: 1.94

INPUT: Please give the result for `L21K` too.
OUTPUT: 2.07

INPUT: And for `P23T` ?
OUTPUT: 1.75

INPUT: What would you report for `C20N` ?
OUTPUT: 2.21

INPUT: Do the same for `H12S` please
OUTPUT: 2.33

INPUT: Would you kindly repeat that for `H1G` ?
OUTPUT: 2.65

INPUT: // query: `H1Y`
OUTPUT: 1.19

INPUT: Proceed to `V6W`
OUTPUT: 3.53

INPUT: Also `H12I` ?
OUTPUT: 1.98

INPUT: Next entry: `P11Q`
OUTPUT: 1.99

INPUT: Subsequent entry: `H1K`
OUTPUT: 2.43

INPUT: Similarly, `S7W` ?
OUTPUT: 3.98

INPUT: Please answer likewise for `A5V`
OUTPUT: 3.93

INPUT: Follow-up entry: `H12T`
OUTPUT: 3.57

INPUT: Repeat for the following variant: `P10Y`
OUTPUT: 2.47
